Every entry's value here was drawn from ChEMBL document CHEMBL1128954.

Test system: Human rhinovirus sp.
Test: Compound was evaluated for antirhinoviral activity against human rhinovirus-14 (HRV-14) in whole cell assay
Assay type: functional, organism-based
QUANTITY_MEASURED: IC50 (nM)

1. CCCCOC(=O)c1ccc(NC(=O)N2CCN(CC(=O)NC(C)C)CC2)cc1 :: 2400
